System: SEM cells
Assay: cell viability relative to DMSO control; higher = less cytotoxic
Conditions: RPMI 5 mM glucose + 10% FBS; 48 h; 1.71 µM
MEASURED_PROPERTY: cell viability (%)
Give the quantity in %, number only.

Problem: Quick one: cell viability for COC(=O)[C@@H]1[C@H]2C[C@H]3c4[nH]c5ccccc5c4CCN3C[C@@H]2CC[C@@H]1O ?
Solution: 119

Problem: Fill in the blank: the reported cell viability of CNC1CCC(N(Cc2cccc(-c3ccncc3)c2)C(=O)c2sc3c(F)ccc(F)c3c2Cl)CC1 (stereo not given) is ____.
Solution: 110

Problem: Please give the measured cell viability for this compound: Cc1cnc(-c2cc(N3CCN(C(=O)CC[S+](C)(=O)[O-])CC3)ncc2Cl)c(C)c1
Solution: 140

Problem: What cell viability value was documented for this compound, CNC[C@H](O)c1ccc(O)c(O)c1 ?
Solution: 83.7

Problem: cell viability lookup needed for COc1ccc(C2CNC(=O)C2)cc1OC1CCCC1 (stereo not given) , thanks.
Solution: 110

Reference for the values: the supplement of paper PMC11451515
